Test system: H1975 cell line
Experiment: Sulforhodamine B colorimetric (SRB) assay, H1975
Conditions: Homo sapiens, NCI-H1975, 72 h, H1975, 72 h
measure: IC50 (nM)
Write the number in nM without appending the unit.

Prompt: For the molecule Cc1oc2c(c1C(=O)NCCCn1ccnc1)C(=O)c1ccccc1C2=O [Compound 1] , what IC50 is on record?
Response: 77

----------
Tested on: Staphylococcus aureus
Experiment: Bacterial growth by Alamar Blue in Muller-Hinton broth
Format: cell-based
Conditions: ~10 μM, 16-24 hours, Alamar Blue, read-out: % of the activities in the presence of ~10 μM compound, Staphylococcus aureus
Protocol: Compound 1 and its analogues shown in Table 6 below were tested for their activities on cancer cells and bacterial cells using assays described herein. H1975, MDA-MB231, and MCF7 cells were incubated in the presence of the compounds in cell growth medium containing 10% fetal bovine serum for two days in a mammalian cell culture incubatoe. Cell viability were monitored by using Cell-TiterGlo. […] Bacterial growth was monitored by using Alamar Blue (Invitrogen).
List of activity at 10 µM values.

| line-notation | experimental-system | activity at 10 µM |
| --- | --- | --- |
| O=C(NCCN1CCOCC1)c1coc2c1C(=O)c1ccccc1C2=O | Staphylococcus aureus | > 100% |

Prompt: For the molecule "COCCNC(=O)c1c(C)oc2c1C(=O)c1ccccc1C2=O" , what activity at 10 µM is on record?
Response: > 100%

Prompt: For the molecule "Cc1oc2c(c1C(=O)N1CCC(C)CC1)C(=O)c1ccccc1C2=O" , what activity at 10 µM is on record?
Response: 65.4%

Prompt: For the molecule "Cc1oc2c(c1C(=O)NCCC(C)C)C(=O)c1ccccc1C2=O" , what activity at 10 µM is on record?
Response: > 100%

----------
Tested on: Breast Cancer Cells (MCF)
Test: Cell viability by Cell-TiterGlo
Assay type: cell-based
Conditions: Homo sapiens, 48 h, two days, read-out: % of the activities in the presence of ~10 μM compound, Breast Cancer Cells (MCF)
Labelling field: enter TRUE if recorded viability at 10 µM is less than 7%. Enter FALSE if it equals or exceeds that cut-off.

Reference set, count: 4
| line-notation | class-assignment |
| --- | --- |
| COCCNC(=O)c1c(C)oc2c1C(=O)c1ccccc1C2=O | TRUE |
| Cc1oc2c(c1C(=O)NCCC(C)C)C(=O)c1ccccc1C2=O | FALSE |
| Cc1oc2c(c1C(=O)NCCCn1ccnc1)C(=O)c1ccccc1C2=O | TRUE |
| O=C(NCCN1CCOCC1)c1coc2c1C(=O)c1ccccc1C2=O | TRUE |

Prompt: viability at 10 µM under 7%? Item: "Cc1oc2c(c1C(=O)N1CCC(C)CC1)C(=O)c1ccccc1C2=O"
Response: FALSE

Prompt: viability at 10 µM under 7%? Item: "Cc1oc2c(c1C(=O)NC(C)(C)C)C(=O)c1ccccc1C2=O"
Response: FALSE

Prompt: viability at 10 µM under 7%? Item: "Cc1oc2c(c1C(=O)N1CCOCC1)C(=O)c1ccccc1C2=O"
Response: FALSE

----------
Tested on: CL1-0 (human lung adenocarcinoma cells, EGFR wild type and resistant to gefitinib)
Experiment: SRB cytotoxicity assay, CL1-0
Details: CL1-0, 72 h
measure: IC50 (µM)
Write the number in µM without appending the unit.

Prompt: For the molecule "Cc1oc2c(c1C(=O)NCCCn1ccnc1)C(=O)c1ccccc1C2=O" , what IC50 is on record?
Response: 0.123
